assay: activity coefficient (dimensionless); of the first substance listed, at infinite dilution; xn = mol fraction of the nth substance listed; conditions: 368.15 K; 101 kPa; Liquid; Chromatography; x1 = 0
Listed compounds paired with reported activity coefficient
attribute measured: activity coefficient

[
  {
    "compound": "C1CCCC1 [cyclopentane] + CCCCCCOCn1cc[n+](C)c1.O=S(=O)([N-]S(=O)(=O)C(F)(F)F)C(F)(F)F",
    "numeric result": 3.16
  },
  {
    "compound": "C=CCCCCCC [oct-1-ene] + CCCCCCOCn1cc[n+](COCCCCCC)c1.O=S(=O)([N-]S(=O)(=O)C(F)(F)F)C(F)(F)F",
    "numeric result": 2.83
  },
  {
    "compound": "Cc1ccccc1C [1,2-dimethylbenzene] + CCCCCCOCn1cc[n+](COCCCCCC)c1.O=S(=O)([N-]S(=O)(=O)C(F)(F)F)C(F)(F)F",
    "numeric result": 0.896
  },
  {
    "compound": "C=CCCCCCC [oct-1-ene] + CCCCCCOCn1cc[n+](C)c1.O=S(=O)([N-]S(=O)(=O)C(F)(F)F)C(F)(F)F",
    "numeric result": 6.34
  },
  {
    "compound": "c1ccsc1 [thiophene] + CCCCCCOCn1cc[n+](COCCCCCC)c1.O=S(=O)([N-]S(=O)(=O)C(F)(F)F)C(F)(F)F",
    "numeric result": 0.557
  },
  {
    "compound": "COC(C)(C)C [2-methoxy-2-methylpropane] + CCCCCCOCn1cc[n+](COCCCCCC)c1.O=S(=O)([N-]S(=O)(=O)C(F)(F)F)C(F)(F)F",
    "numeric result": 0.896
  }
]

###

experiment: activity coefficient (dimensionless); of the first substance listed, at infinite dilution; xn = mol fraction of the nth substance listed; conditions: 368.15 K; 101 kPa; Liquid; Chromatography; x1 = 0

[
  {
    "compound": "Cc1ccc(C)cc1 [1,4-dimethylbenzene] + CCCCCCOCn1cc[n+](C)c1.O=S(=O)([N-]S(=O)(=O)C(F)(F)F)C(F)(F)F",
    "activity coefficient": 1.5
  },
  {
    "compound": "CCCO [propan-1-ol] + CCCCCCOCn1cc[n+](COCCCCCC)c1.O=S(=O)([N-]S(=O)(=O)C(F)(F)F)C(F)(F)F",
    "activity coefficient": 0.752
  },
  {
    "compound": "C#CCCCCCC [1-octyne] + CCCCCCOCn1cc[n+](C)c1.O=S(=O)([N-]S(=O)(=O)C(F)(F)F)C(F)(F)F",
    "activity coefficient": 3.1
  },
  {
    "compound": "C#CCCC [1-pentyne] + CCCCCCOCn1cc[n+](COCCCCCC)c1.O=S(=O)([N-]S(=O)(=O)C(F)(F)F)C(F)(F)F",
    "activity coefficient": 1.02
  },
  {
    "compound": "c1ccccc1 [benzene] + CCCCCCOCn1cc[n+](C)c1.O=S(=O)([N-]S(=O)(=O)C(F)(F)F)C(F)(F)F",
    "activity coefficient": 0.832
  },
  {
    "compound": "CCCCO [butan-1-ol] + CCCCCCOCn1cc[n+](C)c1.O=S(=O)([N-]S(=O)(=O)C(F)(F)F)C(F)(F)F",
    "activity coefficient": 1.15
  },
  {
    "compound": "C#CCCCCCC [1-octyne] + CCCCCCOCn1cc[n+](COCCCCCC)c1.O=S(=O)([N-]S(=O)(=O)C(F)(F)F)C(F)(F)F",
    "activity coefficient": 1.67
  },
  {
    "compound": "CC(C)=O [acetone] + CCCCCCOCn1cc[n+](C)c1.O=S(=O)([N-]S(=O)(=O)C(F)(F)F)C(F)(F)F",
    "activity coefficient": 0.348
  },
  {
    "compound": "C#CCCCC [1-hexyne] + CCCCCCOCn1cc[n+](COCCCCCC)c1.O=S(=O)([N-]S(=O)(=O)C(F)(F)F)C(F)(F)F",
    "activity coefficient": 1.19
  },
  {
    "compound": "C=CCCC [1-pentene] + CCCCCCOCn1cc[n+](COCCCCCC)c1.O=S(=O)([N-]S(=O)(=O)C(F)(F)F)C(F)(F)F",
    "activity coefficient": 1.7
  },
  {
    "compound": "C1CCCCCCC1 [cyclooctane] + CCCCCCOCn1cc[n+](C)c1.O=S(=O)([N-]S(=O)(=O)C(F)(F)F)C(F)(F)F",
    "activity coefficient": 5.48
  },
  {
    "compound": "c1ccsc1 [thiophene] + CCCCCCOCn1cc[n+](C)c1.O=S(=O)([N-]S(=O)(=O)C(F)(F)F)C(F)(F)F",
    "activity coefficient": 0.747
  },
  {
    "compound": "C1CCCCC1 [cyclohexane] + CCCCCCOCn1cc[n+](COCCCCCC)c1.O=S(=O)([N-]S(=O)(=O)C(F)(F)F)C(F)(F)F",
    "activity coefficient": 1.84
  },
  {
    "compound": "C1CCOC1 [tetrahydrofuran] + CCCCCCOCn1cc[n+](C)c1.O=S(=O)([N-]S(=O)(=O)C(F)(F)F)C(F)(F)F",
    "activity coefficient": 0.515
  }
]

###

assay: activity coefficient (dimensionless); of the first substance listed, at infinite dilution; xn = mol fraction of the nth substance listed; conditions: 338.15 K; 101 kPa; Liquid; Chromatography; x1 = 0
The entries below come with measured activity coefficient values attached.

[
  {
    "compound": "C1CCCCCC1 [cycloheptane] + CCCCCCOCn1cc[n+](COCCCCCC)c1.O=S(=O)([N-]S(=O)(=O)C(F)(F)F)C(F)(F)F",
    "activity coefficient": 2.33
  },
  {
    "compound": "C#CCCCCC [1-heptyne] + CCCCCCOCn1cc[n+](C)c1.O=S(=O)([N-]S(=O)(=O)C(F)(F)F)C(F)(F)F",
    "activity coefficient": 2.47
  },
  {
    "compound": "Cc1ccccc1C [1,2-dimethylbenzene] + CCCCCCOCn1cc[n+](COCCCCCC)c1.O=S(=O)([N-]S(=O)(=O)C(F)(F)F)C(F)(F)F",
    "activity coefficient": 0.892
  }
]

###

test: activity coefficient (dimensionless); of the first substance listed, at infinite dilution; xn = mol fraction of the nth substance listed; conditions: 298.15 K; 101 kPa; Liquid; Chromatography; x1 = 0
# cutoff 7 applies to activity coefficient; >= gives rule met, < gives rule not met

[
  {
    "molecule": "CCCCCCCCC [nonane] + CCCCCCOCn1cc[n+](C)c1.O=S(=O)([N-]S(=O)(=O)C(F)(F)F)C(F)(F)F",
    "class name": "rule met"
  },
  {
    "molecule": "C1CCCCCC1 [cycloheptane] + CCCCCCOCn1cc[n+](C)c1.O=S(=O)([N-]S(=O)(=O)C(F)(F)F)C(F)(F)F",
    "class name": "rule not met"
  },
  {
    "molecule": "C1CCCCCCC1 [cyclooctane] + CCCCCCOCn1cc[n+](C)c1.O=S(=O)([N-]S(=O)(=O)C(F)(F)F)C(F)(F)F",
    "class name": "rule met"
  },
  {
    "molecule": "CCCCCCC [heptane] + CCCCCCOCn1cc[n+](C)c1.O=S(=O)([N-]S(=O)(=O)C(F)(F)F)C(F)(F)F",
    "class name": "rule met"
  },
  {
    "molecule": "C1CCCC1 [cyclopentane] + CCCCCCOCn1cc[n+](COCCCCCC)c1.O=S(=O)([N-]S(=O)(=O)C(F)(F)F)C(F)(F)F",
    "class name": "rule not met"
  },
  {
    "molecule": "CCCCCC [hexane] + CCCCCCOCn1cc[n+](COCCCCCC)c1.O=S(=O)([N-]S(=O)(=O)C(F)(F)F)C(F)(F)F",
    "class name": "rule not met"
  },
  {
    "molecule": "c1ccccc1 [benzene] + CCCCCCOCn1cc[n+](COCCCCCC)c1.O=S(=O)([N-]S(=O)(=O)C(F)(F)F)C(F)(F)F",
    "class name": "rule not met"
  },
  {
    "molecule": "C1CCOC1 [tetrahydrofuran] + CCCCCCOCn1cc[n+](COCCCCCC)c1.O=S(=O)([N-]S(=O)(=O)C(F)(F)F)C(F)(F)F",
    "class name": "rule not met"
  }
]
